Documented protein stability index across a set of variants
B1: NETO1 (parent)
chain: GFSPIIGRFCGQQNPPVIKSSGRF

- Variants of: B1
- assay_notes: protein stability index of a GFP-peptide fusion (GPS, HEK-293T) (PSI 1-6); higher = more stable;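 also: lentivirally expressed fusions sorted by FACS into six bins by GFP to DsRed ratio, PSI derived from sequencing read proportions per bin multiplied by bin number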
- particulars: c terminus: a fixed tail appended
measure: protein stability index

INSERT INTO assay_data (mutation_string, reported_result) VALUES
  ('F2H', 2.15),
  ('G1A', 2.17),
  ('Q12D', 2.53),
  ('I5L', 2.17),
  ('K19D', 2.26),
  ('G7H', 1.74),
  ('V17L', 1.66),
  ('G7P', 1.65),
  ('F24T', 2.65),
  ('I18Y', 2.43),
  ('R8W', 1.93),
  ('F9W', 2.27),
  ('G22P', 2.15),
  ('F2D', 2.68),
  ('F9Q', 2.38),
  ('I5R', 2.79),
  ('F9C', 2.06),
  ('I6G', 2.58),
  ('C10E', 3.76),
  ('I5W', 1.42),
  ('N14A', 2.25),
  ('I5C', 2.12);
